The measured values listed here are drawn from ChEMBL document CHEMBL1153949.

# inhibition listing for each entry below
biological target: RAC-alpha serine/threonine-protein kinase (Homo sapiens); assay: Inhibition of AKT1 at 100 uM
Quick reminder: number only, in %, skip the unit.

Q. Supply inhibition value. Item: `Cn1cccc1-c1nnc(Sc2ncc([N+](=O)[O-])s2)n1-c1ccc(Cl)cc1Cl`
A. 14

---

Measured inhibition accompanies every entry in the list below.
assay: Inhibition of JNK at 100 uM by time-resolved FRET assay
Please give a number only; it is taken to be in %.

Would you please look over these solved cases?
Oc1nnc(SCc2ccccc2)n1-c1ccc2c(c1)OCCO2: 2
CCSc1nnc(O)n1-c1ccccc1: 16
CCCCSc1nnc(O)n1-c1ccccc1: 25

Q. Output measured inhibition for this item: `O=[N+]([O-])c1ccc(Sc2nnc(O)n2-c2ccccc2)s1`
A. 22
